Recorded TGI by entry
Test system: RPMI-8226 leukemia
Test: NCI tumour cell line growth inhibition, 48 h
Write it as a number; the unit µM goes unstated.

// query Entry COC(=O)C1(N2CCOCC2)CCC([C@@H](c2ccccc2)C(C)[N+](=O)[O-])C1 (some centres undefined) needs its TGI filled in; supply it.
// result 42.9

// query Entry COC(=O)/C(=C1\OC(=O)C(c2ccc(Cl)cc2)=C1O)c1ccc(Cl)cc1 needs its TGI filled in; supply it.
// result 55.2

// query Entry Oc1ccccc1-c1cnnc(-c2ccccc2O)c1 needs its TGI filled in; supply it.
// result 51.2

Kindly review the next compound as well.
// query Entry Cc1ccc2c(c1)n([O-])c(C(F)(F)F)c(C(=O)c1ccco1)[n+]2=O needs its TGI filled in; supply it.
// result 2.69
